The measured values listed here are drawn from PubChem BioAssay (NCI).

# Assay protocol: NCI Yeast Anticancer Drug Screen. Data for the bub3 strain (AID 167)
# Applied conditions: S. cerevisiae bub3 mutant strain, at 5.0 µM (retest, dose inferred, filed as 0.5)
The panel holds about 79,000 compounds, 15% with a hit somewhere; the sample as a whole holds those more often. Activity calls are given as the source filed them. Rule as the data show it: active = growth inhibition above about 70%; inactive = the rest.
Outcomes: 1 (yes) (active), 0 (no) (inactive)

1. CC1=C(N2CC2)C(=O)c2nc3n(c2C1=O)CCC3OC(=O)CCl (stereo not drawn) | 0 (no)
2. C=C1C(C)C2C(Cc3ccccc3)NC(=O)C23C(OC(C)=O)/C=C/C(C)(O)CC(C)C/C=C/C3C1O (stereo not drawn) | 1 (yes)
3. Nc1cc2[nH]cnc2c([Se])n1 | 0 (no)
4. O=C([CH-]C(=O)c1ccccc1)c1ccccc1.O=C([CH-]C(=O)c1ccccc1)c1ccccc1.O=C([CH-]C(=O)c1ccccc1)c1ccccc1.[Nd+3].[OH3+] | 0 (no)
5. CCN(CC)CC(=O)c1cc2ccccc2c2ccccc12 | 0 (no)
6. CCSc1nc(=[N+]2CCCC2)ss1 | 0 (no)
7. COC1OC(OC)[CH]([Hg][Cl])C1OC (stereo not drawn) | 1 (yes)
8. Cc1cc(CCN)c(C)c2c1sc1ccccc12 | 1 (yes)
9. O=C(CBr)OCC(Br)CBr (stereo not drawn) | 1 (yes)
10. Oc1c(Cl)cc(Cl)cc1Cl.[Cu+2] | 0 (no)
11. CC1=CC(=O)c2c(O)cccc2C1=O | 0 (no)
12. COc1ccc(/C=C/[N+](=O)[O-])cc1 | 0 (no)
13. O=C(CBr)OC1CCCCC1 | 0 (no)
14. [Cl][Hg][c]1ccco1 | 1 (yes)
15. N#CN(Cc1ccccc1)C(c1ccccc1)(c1ccccc1)c1ccccc1.[I][Sn]([c]1ccccc1)([c]1ccccc1)[c]1ccccc1 | 1 (yes)
16. N#CC(Cl)(Cl)CCl | 0 (no)
17. Cc1ccc(S(=O)(=O)/N=[Se](\C)c2ccccc2)cc1 (stereo not drawn) | 0 (no)
18. O=c1cccc(C2CC(CO)C3CCCCN3C2)[nH]1 (stereo not drawn) | 0 (no)
19. O=[As]c1ccccc1O (stereo not drawn) | 0 (no)
20. c1ccc2c(c1)[O][Sn][O]2 | 0 (no)
21. NNc1ccccc1 | 0 (no)
22. CN(C)c1ccc(C2N(Cc3ccc(N(CCCl)CCCl)cc3)CCCN2Cc2ccc(N(CCCl)CCCl)cc2)cc1 | 0 (no)
23. O=C(CBr)NC1CCCCC1 | 0 (no)

---

# Assay protocol: NCI Yeast Anticancer Drug Screen. Data for the rad50 strain (AID 155);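 also: 0% = growth of vehicle-only cultures of the same strain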
# Applied conditions: S. cerevisiae rad50 strain growth inhibition; at 50.0 µM; active compounds read high
Compounds without any hit were thinned out: in the full panel of roughly 79,000, 15% have a hit.
Please note: true (1) applies when growth inhibition is 20% or greater, and false (0) applies otherwise.

1) NC(=O)c1cc([N+](=O)[O-])c(Cl)c([N+](=O)[O-])c1 | true (1)
2) CC1C2CCC3C(O)C2(CC(O)C2(O)C1CC(O)C2(C)C)CC3(C)O (stereo unspecified) | false (0)
3) N/C(=N\N=C\c1ccccc1O)N[N+](=O)[O-] | false (0)
4) O=S(O)O.O=S(O)O.[Co].[NH2-].[NH2-].[NH2-].[NH2-] | false (0)
5) COc1ccc(C2=CC3=CCC4C(CCC5(C)C(O)CCC45)C3(C)CC2)s1 (stereo unspecified) | false (0)
6) COc1cc(C(=O)O)cc(OC)c1OC | false (0)
7) CC(C)=CC(=O)N(C)C1C2CN3CCC(O2)C13 (stereo unspecified) | false (0)
8) O=C(OCCOCCOC(=O)C(Cl)(Cl)Cl)C(Cl)(Cl)Cl | false (0)
9) COc1cc(C2c3cc4c(cc3OC(NNS(=O)(=O)c3ccc(C)cc3)C2C)OCO4)cc(OC)c1O (stereo unspecified) | false (0)
10) COc1cccc(C)c1C1CC2CCCN2O1 (stereo unspecified) | false (0)
11) CC12CCC(=O)C=C1CCC1C2CCC2(C)C(OC(=O)C34C=CC(=O)C3C3C=CC4CC3)CCC12 (stereo unspecified) | true (1)
